target: T1, Human EphA2 (Ecto) (Human, UniProt P29317 24-537); assay: FP competition; competitor Compound 18
T1 construct: extracellular domain
T1 sequence (P29317 24-537): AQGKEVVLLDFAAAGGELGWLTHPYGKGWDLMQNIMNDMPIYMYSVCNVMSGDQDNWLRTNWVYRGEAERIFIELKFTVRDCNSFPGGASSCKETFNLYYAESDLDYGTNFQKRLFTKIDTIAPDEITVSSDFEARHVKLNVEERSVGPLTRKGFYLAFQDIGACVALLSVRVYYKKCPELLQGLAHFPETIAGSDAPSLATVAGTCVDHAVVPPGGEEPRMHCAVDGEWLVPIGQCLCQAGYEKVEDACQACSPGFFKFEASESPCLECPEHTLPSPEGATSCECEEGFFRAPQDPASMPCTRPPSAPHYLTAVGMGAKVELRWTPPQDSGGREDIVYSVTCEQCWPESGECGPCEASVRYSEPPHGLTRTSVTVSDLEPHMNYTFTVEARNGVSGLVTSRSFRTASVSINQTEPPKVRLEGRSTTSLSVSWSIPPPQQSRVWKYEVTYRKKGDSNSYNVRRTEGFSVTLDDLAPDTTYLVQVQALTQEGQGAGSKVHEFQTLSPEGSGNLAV
pKi: −log10 of the molar value. Numbered stars: 1 amine (or outer) side, 2 acyl side, 3 side chain; on linkers, the order of the positions; unused ones are H or OH. Bridge positions count the residues as written; N and C are the ends. Square brackets hold non-standard residues; d marks the D form. Ends that are not written are not given here. 1Nal = N[C@@H](Cc1cccc2ccccc12)C(=O)O; TBMB = c1c(C[*:1])cc(C[*:3])cc1C[*:2]; Gly(cPent) = N[C@H](C(=O)O)C1CCCC1; hArg = N=C(N)NCCCC[C@H](N)C(=O)O; Tle = CC(C)(C)[C@H](N)C(=O)O; Aib = CC(C)(N)C(=O)O; βAla = NCCC(=O)O; Sar = CNCC(=O)O
outcome-measure: pKi

(I) [βAla][Sar][Sar][Sar][Sar][Sar][Sar][Sar][Sar][Sar][Sar]H[dD]VPC[Aib][1Nal]G[Aib]F[1Nal]CP[Tle]NRPGC (linker 16-23-30 via TBMB) [Compound 234]
(II) {Ac-βAla}-[Sar][Sar][Sar][Sar][Sar][Sar][Sar][Sar][Sar][Sar]H[dD]VPCP[1Nal]G[Aib]F[1Nal]CP[Tle]NR[Aib][dD]C (linker 15-22-29 via TBMB) [Compound 260]
Between the entries labelled I and II , which has a larger pKi value on record? Lab log: write the label of the selected item as the result. II

(P) [βAla][Sar][Sar][Sar][Sar][Sar][Sar][Sar][Sar][Sar][Sar]H[dD]VPC[Aib][1Nal]G[Aib]FWCP[Tle]N[hArg]P[dD]C (linker 16-23-30 via TBMB) [Compound 242]
(Q) [βAla][Sar][Sar][Sar][Sar][Sar][Sar][Sar][Sar][Sar][Sar]H[dD][Gly(cPent)]TCP[1Nal]G[Aib]F[1Nal]CP[Tle]NR[Aib]GC (linker 16-23-30 via TBMB) [Compound 279]
(R) [βAla][Sar][Sar][Sar][Sar][Sar][Sar][Sar][Sar][Sar][Sar]H[dD]VPC[Aib]WGP[hArg]WCP[Tle]N[hArg]P[dD]C (linker 16-23-30 via TBMB) [Compound 247]
Which order do these items take when sorted by rising pKi? List them. Please reply with the labels ordered as requested. Many thanks. R, P, Q
(R: 7.53, P: 8.11, Q: 9.23)

(a) [βAla][Sar][Sar][Sar][Sar][Sar][Sar][Sar][Sar][Sar][Sar]H[dD][Gly(cPent)]PCP[1Nal]G[Aib]F[1Nal]CP[Tle]NR[Aib]GC (linker 16-23-30 via TBMB) [Compound 278]
(b) [βAla][Sar][Sar][Sar][Sar][Sar][Sar][Sar][Sar][Sar][Sar]H[dD]VPCPWG[Aib]F[1Nal]CP[Tle]N[hArg]P[dD]C (linker 16-23-30 via TBMB) [Compound 269]
(c) [βAla][Sar][Sar][Sar][Sar][Sar][Sar][Sar][Sar][Sar][Sar]H[dD][Gly(cPent)]PC[Aib]WG[Aib]FWCP[Tle]NR[Aib][dD]C (linker 16-23-30 via TBMB) [Compound 275]
Ranking field: pKi; order: falling. Please reply with the labels ordered as requested. Many thanks. a, b, c

Provenance of the data: patent US20200338203A1
